System: HOP-62
Test: Cytotoxicity against HOP-62 human lung cancer cell line was determined
Type: functional
What GI50 was measured for each of the following?

[N-]=[N+]=NCCCn1c2c(c3ccccc3c1=O)C(=O)c1ccccc1-2 7.59 µM
COc1cc2c(cc1OC)[C@H]1C(=O)c3cc4c(cc3[C@H]1N(CCCBr)C2=O)OCO4 0.12 µM
NCCCn1c2c(c3ccc([N+](=O)[O-])cc3c1=O)C(=O)c1cc3c(cc1-2)OCO3 < 0.01 µM
O=C1c2cc3c(cc2[C@@H]2[C@H]1c1ccc([N+](=O)[O-])cc1C(=O)N2CCCCl)OCO3 < 0.01 µM

Look up GI50 for the entries below, preserving their order.
1. [N-]=[N+]=NCCCn1c2c(c3ccc([N+](=O)[O-])cc3c1=O)C(=O)c1ccccc1-2
2. CN1C(=O)c2cc([N+](=O)[O-])ccc2[C@H]2C(=O)c3cc4c(cc3[C@H]21)OCO4
3. O=C1c2ccccc2-c2c1c1ccc([N+](=O)[O-])cc1c(=O)n2CCCCl
4. COc1cc2c3c(n(C)c(=O)c2cc1OC)-c1cc2c(cc1C3=O)OCO2
5. O=C1c2cc3c(cc2[C@@H]2[C@H]1c1ccc([N+](=O)[O-])cc1C(=O)N2CCCBr)OCO3

1. > 100 µM
2. 0.158 µM
3. 43.7 µM
4. 1.3 µM
5. < 0.01 µM

All values here come from ChEMBL document CHEMBL1146791.
